Data credit: PubChem BioAssay (NCI)

System: NCI-H226 lung
PROTOCOL: NCI-60 one-dose screen, 48 h
MEASUREMENT_CONDITIONS: 10 µM unless noted
Compounds without any hit were thinned out: in the full panel of roughly 83,000, 20% have a hit. Calls of active or inactive are those of the source. The calls were made as follows: active = growth percent below 10; inactive = the rest.
Hello, when you answer, please use one of the following outcomes: YES for active, NO for inactive

Returns: the outcome recorded for CCOC(=O)c1c(C)oc2ncnc(N3CCN(C(=O)COc4ccc(C(C)(C)C)cc4)CC3)c12 in this assay.
NO

Returns: the outcome recorded for COc1cc(/C=C/C(=O)/C=C/c2cc(OC)c3c(c2OC)OCO3)c(OC)c2c1OCO2 in this assay.
NO

Returns: the outcome recorded for COc1cccc(Cc2cc(-c3ccccc3)nn(CC(=O)c3ccccc3)c2=O)c1 in this assay.
NO

Returns: the outcome recorded for Brc1c[n+](Cc2ccc3ccccc3c2)cn1Cc1ccc2ccccc2c1 in this assay.
NO

Returns: the outcome recorded for Fc1cc2c(cc1Cl)N(c1ncnc3ccc(-c4cnc5cnccn45)cc13)CC2 in this assay.
NO

Returns: the outcome recorded for Cc1ccc(S(=O)(=O)N/N=C/C2(c3ccccc3)CC2)cc1 in this assay.
NO
